B1: MFF (parent)
chain: YTEGISQRMRVPEKLKVAPPNADL

Variants of: B1
Assay: protein stability index of a GFP-peptide fusion (GPS, HEK-293T) (PSI 1-6); higher = more stable;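 further: lentivirally expressed fusions sorted by FACS into six bins by GFP to DsRed ratio, PSI derived from sequencing read proportions per bin multiplied by bin number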
Details: c terminus: a fixed tail appended
Label not fulfilled if protein stability index falls below 3; label fulfilled in every other case.

See these solved cases before continuing.
| BIOSEQUENCE | GROUP LABEL |
| --- | --- |
| YTEGISQRMRVPEKLKVAPPNAKL [D23K] | not fulfilled |
| YTEGISQRMRVPEKLKVRPPNADL [A18R] | not fulfilled |
| YTEGISQRMRVPEKLKVARPNADL [P19R] | not fulfilled |
| YKEGISQRMRVPEKLKVAPPNADL [T2K] | fulfilled |
| YTEGISQRMRVPEKLKDAPPNADL [V17D] | fulfilled |

Incoming: Would you say YTEGISQRMRVPEKLWVAPPNADL [K16W] shows protein stability index at minimum 3?
Outgoing: not fulfilled

Incoming: # check: protein stability index of YTEGISQRMRWPEKLKVAPPNADL [V11W] is greater than or equal to 3
Outgoing: not fulfilled

Incoming: In plain terms: is recorded protein stability index at least 3 for YTEGISQRMRVPEKLKVANPNADL [P19N] ?
Outgoing: not fulfilled
